Every entry's value here was drawn from paper PMC10668032.

Molecular target: SIX1 homeodomain (reference allele) (human, UniProt Q15475 108-198)
Sequence: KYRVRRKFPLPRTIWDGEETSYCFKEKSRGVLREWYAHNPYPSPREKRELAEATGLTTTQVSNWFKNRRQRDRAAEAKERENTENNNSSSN
Assay: universal protein binding microarray; Universal all-10-mer PBM (8x60K, AMADID 030236), 300 nM GST-tagged protein, Alexa Fluor 488 anti-GST; buffer, salt, pH and temperature not stated (as in Berger); high values mean tight binding
Details: protein: ivt; tags: N-terminal GST; dsDNA, one strand shown
Whole data set: some 33,000 sequences, median “e-score” near -0.053, cut for the highest 2% near 0.38. What follows is part of a selection rich in the highest values, with near analogues and random picks from the rest.
The following ranges of binding signal define the classes used here: low range = under 0.2 E-score, mid range = from 0.2 E-score up to 0.3 E-score, high range = 0.3 E-score and over

Seq Text: CCACTATC
Assigned Label: mid range

Q: Which category fits this record: ACGATATC
A: high range

Q: Which category fits this record: GATCCATC
A: high range

Q: Which category fits this record: TATCCCCA
A: high range

Q: Which category fits this record: AGGATATA
A: high range

Q: Which category fits this record: ATTGGATC
A: high range

Q: Which category fits this record: ACGATCTC
A: low range

Q: Which category fits this record: AGGATAAC
A: mid range

Q: Which category fits this record: CTATACGC
A: mid range

====

Below, each of the sequences is paired with its reported binding signal value.
Molecular target: SIX1 homeodomain (reference allele) (human, UniProt Q15475 108-198)
Sequence: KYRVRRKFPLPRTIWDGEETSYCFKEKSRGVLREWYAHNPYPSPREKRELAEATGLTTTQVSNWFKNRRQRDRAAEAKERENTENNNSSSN
Experiment: universal protein binding microarray; Universal all-10-mer PBM (8x60K, AMADID 030236), 300 nM GST-tagged protein, Alexa Fluor 488 anti-GST; buffer, salt, pH and temperature not stated (as in Berger); high values mean tight binding
Details: protein: ivt; tags: N-terminal GST; dsDNA, one strand shown
The full ranking holds about 33,000 sequences; the median of “e-score” is about -0.053, and the highest 2% start at about 0.38. Shown is part of a subset that was picked to be rich in the highest values.
Give the quantity in E-score, number only.

Record excerpt, results attached:
Seq Text: GAGTAGAC
Numeric Value: 0.214
//
Seq Text: ATAAGGTA
Numeric Value: 0.247
//
Seq Text: GCATACGA
Numeric Value: 0.157
//
Seq Text: CCTCCGGA
Numeric Value: 0.203

Q: Consider the sequence CGTATCTA and give its measured binding signal.
A: 0.349

Q: Consider the sequence AGTATCTG and give its measured binding signal.
A: 0.317

Q: Consider the sequence ACTATCTC and give its measured binding signal.
A: 0.209

Q: Consider the sequence AGTATATC and give its measured binding signal.
A: 0.383

Q: Consider the sequence ATCCTGCC and give its measured binding signal.
A: 0.175

Q: Consider the sequence CGTATCTC and give its measured binding signal.
A: 0.378

Q: Consider the sequence AGTATATA and give its measured binding signal.
A: 0.306

====

Target: SIX1 homeodomain (reference allele) (human, UniProt Q15475 108-198)
Sequence: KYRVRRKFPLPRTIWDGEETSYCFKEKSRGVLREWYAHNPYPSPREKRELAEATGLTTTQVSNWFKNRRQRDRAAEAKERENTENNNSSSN
Experiment: universal protein binding microarray; Universal all-10-mer PBM (8x60K, AMADID 030236), 300 nM GST-tagged protein, Alexa Fluor 488 anti-GST; buffer, salt, pH and temperature not stated (as in Berger); high values mean tight binding
Conditions: protein: ivt; tags: N-terminal GST; dsDNA, one strand shown
In all, about 33,000 sequences were measured (“e-score”: median about -0.053, highest 2% from about 0.38 on). For the sample, the highest values were picked, then their nearest neighbours and some sequences at random.
The following ranges of binding signal define the classes used here: band A (below 0.2 E-score), band B (0.2 E-score to below 0.3 E-score), band C (0.3 E-score or more)

Q: Which category fits this record: GATCCTTA
A: band C

Q: Which category fits this record: ATCACCGA
A: band B

Q: Which category fits this record: AAGTATCC
A: band C

Q: Which category fits this record: GATTACAC
A: band A

====

Below, each of the sequences is paired with its reported binding signal value.
Target: SIX1 homeodomain (reference allele) (human, UniProt Q15475 108-198)
Sequence: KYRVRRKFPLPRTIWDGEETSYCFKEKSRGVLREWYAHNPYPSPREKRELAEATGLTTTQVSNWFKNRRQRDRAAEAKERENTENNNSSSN
Assay: universal protein binding microarray; Universal all-10-mer PBM (8x60K, AMADID 030236), 300 nM GST-tagged protein, Alexa Fluor 488 anti-GST; buffer, salt, pH and temperature not stated (as in Berger); high values mean tight binding
Details: protein: ivt; tags: N-terminal GST; dsDNA, one strand shown
In all, about 33,000 sequences were measured (“e-score”: median about -0.053, highest 2% from about 0.38 on). What follows is part of a selection rich in the highest values, with near analogues and random picks from the rest.
Kindly report the value followed by its unit.

Record excerpt, results attached:
Seq Text: CGCGATAC
binding signal: 0.458 E-score

Seq Text: AAATCCCC
binding signal: 0.181 E-score

Seq Text: CAATCCCA
binding signal: 0.177 E-score

Seq Text: ATCTCCCG
binding signal: 0.222 E-score

Seq Text: ATCAACAA
binding signal: 0.222 E-score

Q: Consider the sequence GATCTAGA and give its measured binding signal.
A: 0.252 E-score

Q: Consider the sequence ATCCGAAC and give its measured binding signal.
A: 0.278 E-score

Q: Consider the sequence CGTCTAAG and give its measured binding signal.
A: 0.193 E-score

====

Target: SIX1 homeodomain (reference allele) (human, UniProt Q15475 108-198)
Sequence: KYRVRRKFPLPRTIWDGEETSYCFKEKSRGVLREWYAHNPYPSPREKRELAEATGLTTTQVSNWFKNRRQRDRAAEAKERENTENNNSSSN
Assay: universal protein binding microarray; Universal all-10-mer PBM (8x60K, AMADID 030236), 300 nM GST-tagged protein, Alexa Fluor 488 anti-GST; buffer, salt, pH and temperature not stated (as in Berger); high values mean tight binding
Settings: protein: ivt; tags: N-terminal GST; dsDNA, one strand shown
The full ranking holds about 33,000 sequences; the median of “e-score” is about -0.053, and the highest 2% start at about 0.38. Many of the other results were omitted from the sample, so the highest values are more common in it than they were.
Response field label takes 1 (yes) when binding signal is strictly below 0.3 E-score and 0 (no) in all other cases.

Examples from the recorded data:
Seq Text: CAGGTGTA
Assigned Label: 1 (yes)
--
Seq Text: CGTATGAA
Assigned Label: 1 (yes)
--
Seq Text: GAGACGGA
Assigned Label: 1 (yes)
--
Seq Text: ACGGTGAT
Assigned Label: 1 (yes)
--
Seq Text: GCCAGATA
Assigned Label: 1 (yes)

Q: Below 0.3 E-score on binding signal? Entry GCTGGATA
A: 0 (no)

Q: Below 0.3 E-score on binding signal? Entry GTATTGTA
A: 1 (yes)

====

Biological target: SIX1 homeodomain (reference allele) (human, UniProt Q15475 108-198)
Sequence: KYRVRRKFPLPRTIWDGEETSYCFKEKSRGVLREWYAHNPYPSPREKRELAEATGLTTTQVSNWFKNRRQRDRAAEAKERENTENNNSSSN
Test: universal protein binding microarray; Universal all-10-mer PBM (8x60K, AMADID 030236), 300 nM GST-tagged protein, Alexa Fluor 488 anti-GST; buffer, salt, pH and temperature not stated (as in Berger); high values mean tight binding
Settings: protein: ivt; tags: N-terminal GST; dsDNA, one strand shown
In all, about 33,000 sequences were measured (“e-score”: median about -0.053, highest 2% from about 0.38 on). This is one part of a sample in which the highest values are shown more often than they occur.
Response field label takes Met when binding signal is strictly below 0.3 E-score and Not met in all other cases.

Examples from the recorded data:
Seq Text: ATACTTCC
Measured On: SIX1 homeodomain (reference allele) (human, UniProt Q15475 108-198)
Assigned Label: Met
--
Seq Text: ATCAGTAC
Measured On: SIX1 homeodomain (reference allele) (human, UniProt Q15475 108-198)
Assigned Label: Met
--
Seq Text: CCGTATTA
Measured On: SIX1 homeodomain (reference allele) (human, UniProt Q15475 108-198)
Assigned Label: Not met
--
Seq Text: AGTATACC
Measured On: SIX1 homeodomain (reference allele) (human, UniProt Q15475 108-198)
Assigned Label: Not met
--
Seq Text: ACGATACA
Measured On: SIX1 homeodomain (reference allele) (human, UniProt Q15475 108-198)
Assigned Label: Not met
--
Seq Text: GATCTTTA
Measured On: SIX1 homeodomain (reference allele) (human, UniProt Q15475 108-198)
Assigned Label: Met

Q: Below 0.3 E-score on binding signal? Entry TAACCCGA
A: Met

Q: Below 0.3 E-score on binding signal? Entry ATACCGTG
A: Not met

Q: Below 0.3 E-score on binding signal? Entry TATCGCGA
A: Not met

Q: Below 0.3 E-score on binding signal? Entry GGGTGTGA
A: Met
